cAMP EC50 (1.0% HSA) values, listed per item
- study-system: human GLP-1 receptor (human, UniProt P43220 24-463)
- assay-summary: cell-based or functional assay
*1 amine or outer side, *2 acyl side, *3 side chain or, on linkers, in order; H or OH if unused. Where no end group is shown, it is not given here. Side-chain parts run from the residue outwards. [ ]: non-standard residue; d: D form. The star is where a group is joined. αMePhe(2-F) = C[C@](N)(Cc1ccccc1F)C(=O)O; γGlu = O=C(O)[C@H](CCC(=O)[*:2])N[*:1]; C14 diacid = O=C(O)CCCCCCCCCCCCC(=O)*; αMeY = C[C@](N)(Cc1ccc(O)cc1)C(=O)O; αMeF = C[C@](N)(Cc1ccccc1)C(=O)O; αMeL = CC(C)C[C@](C)(N)C(=O)O; Orn = NCCC[C@H](N)C(=O)O; AEEA = NCCOCCOCC(=O)O; Aib = CC(C)(N)C(=O)O

binder	unit	cAMP EC50 (1.0% HSA)
Y[Aib]EGT[αMePhe(2-F)]TSDV[Aib]I[αMeL]LD[Orn]K([AEEA-AEEA-γGlu-C14 diacid])AQ[Aib]E[αMeF]I[dE][αMeY]LIEGGK([AEEA-AEEA-γGlu-C14 diacid])SSGAPPPS-NH2	nM	66
YXEGTXTSDYXIXLDXKAQXEFIXXLIEGGKSSGAPPPS (Aib2, αMeF(2F)6, Dap11, αMeL13, Orn16, Aib20, D-Glu24, αMeY25; acylated K17, K31 (groups as in name); C-terminal amide)	nM	26.6
YXEGTXTSDXXIXLDXIAQXEFIKXLIKGGPSSGAPPPS (Aib2, αMeF(2F)6, 4Pal10, αMeS11, αMeL13, Orn16, Aib20, αMeY25; acylated K24, K28 (groups as in name); C-terminal amide)	nM	32.3
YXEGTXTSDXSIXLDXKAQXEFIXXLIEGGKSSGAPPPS (Aib2, αMeF(2F)6, αMeV10, αMeL13, Orn16, Aib20, D-Glu24, αMeY25; acylated K17, K31 (groups as in name); C-terminal amide)	nM	37.8
YXEGTXTSDXXIXLDXKAQXEFIXXLIEGGKSSGAPPPS (Aib2, αMeF(2F)6, 4Pal10, Ac5c11, αMeL13, Orn16, Aib20, D-Glu24, αMeY25; acylated K17, K31 (groups as in name); C-terminal amide)	nM	94.2
